# Test system: MES-SA/MX2 cells
# protocol_description: Cytotoxicity in panel of MDR cell lines, MES-SA/MX2 (72 h and 144 h)
# Type: cell-based, human
# condition_details: Homo sapiens, 72 h incubation, read-out: MES-SA/MX2 IC50 72 h
Below is a list of entries, each paired with its recorded IC50 value.
I only need the number, in nM, no unit after it.

C#CCCCCN(C(=O)[C@@H](NC(=O)[C@H]1CCCCN1C)[C@@H](C)CC)[C@H](C[C@@H](OC(C)=O)c1nc(C(=O)N[C@@H](Cc2ccc(F)cc2)CC(C)(C)C(=O)O)cs1)C(C)C [IVc] ... 0.374
C#CCCCON(C(=O)[C@@H](NC(=O)[C@H]1CCCCN1C)[C@@H](C)CC)[C@H](C[C@@H](OC(C)=O)c1nc(C(=O)N[C@@H](Cc2ccc(N)cc2)C[C@H](C)C(=O)O)cs1)C(C)C [Vh] ... 2.98

Data request, read-out IC50, for CCCCCCN(C(=O)[C@@H](NC(=O)[C@H]1CCCCN1C)[C@@H](C)CC)[C@H](C[C@@H](OC(C)=O)c1nc(C(=O)NC(Cc2ccc(F)c(N)c2)CC(C)(C)C(=O)O)cs1)C(C)C (stereo partly shown) [IVu]
0.535

Next: CC[C@H](C)[C@H](NC(=O)[C@H]1CCCCN1C)C(=O)N(CCCCc1cn(-c2ccccc2)nn1)[C@H](C[C@@H](OC(C)=O)c1nc(C(=O)N[C@@H](Cc2ccc(N)cc2)CC(C)(C)C(=O)O)cs1)C(C)C [IVp]
0.792

Data provenance: patent US12144864B2
